biological target: UniProt:P04150; assay: HepG2 TAT assay: inhibition of dexamethasone-induced tyrosine aminotransferase (TAT) activity; conditions: HepG2 cells, challenge of 100 nM dexamethasone, 18-24 hr; IC50 converted to Ki by Cheng and Prusoff equation
Result type: log10(Ki) (log10 of the value in µM)

Compound | log10(Ki)
Cc1cc2c(cnn2-c2ccc(F)cc2)cc1[C@@]12CN(S(=O)(=O)c3cccnc3)C[C@@H]1[C@H]2c1ccccc1 | -1.85
COC1(c2ccccc2)CC2CN(C(=O)OC(C)(C)C)CC2(c2cc3cnn(-c4ccc(F)cc4)c3cc2C)C1 (stereo not shown) | -1.36
Cc1cc2c(cnn2-c2ccc(F)cc2)cc1C12CN(C(=O)OC(C)(C)C)CC1CC(O)(c1ccccc1)C2 (stereo not shown) | -1.38
Cc1cc2c(cnn2-c2ccc(F)cc2)cc1[C@@]12CN(C(=O)N3CCCC3)C[C@@H]1[C@H]2c1ccccc1 (single isomer, unassigned) | -1.47
CC(=O)N1CC2CC(Oc3ccccc3)CC2(c2cc3cnn(-c4ccc(F)cc4)c3cc2C)C1 (stereo not shown) | -0.38
Cc1cc2c(cnn2-c2ccc(F)cc2)cc1[C@@]12CN(S(=O)(=O)N3CCCCC3)C[C@@H]1[C@H]2c1ccccc1 | -1.59
COC1(c2ccccc2)CC2CN(S(C)(=O)=O)CC2(c2cc3cnn(-c4ccc(F)cc4)c3cc2C)C1 (stereo not shown) | -1.11

###

Reported pKi values are given for each entry in this list.
Biological target: glucocorticoid receptor (Homo sapiens (Human))
Sequence (P04150 whole entry): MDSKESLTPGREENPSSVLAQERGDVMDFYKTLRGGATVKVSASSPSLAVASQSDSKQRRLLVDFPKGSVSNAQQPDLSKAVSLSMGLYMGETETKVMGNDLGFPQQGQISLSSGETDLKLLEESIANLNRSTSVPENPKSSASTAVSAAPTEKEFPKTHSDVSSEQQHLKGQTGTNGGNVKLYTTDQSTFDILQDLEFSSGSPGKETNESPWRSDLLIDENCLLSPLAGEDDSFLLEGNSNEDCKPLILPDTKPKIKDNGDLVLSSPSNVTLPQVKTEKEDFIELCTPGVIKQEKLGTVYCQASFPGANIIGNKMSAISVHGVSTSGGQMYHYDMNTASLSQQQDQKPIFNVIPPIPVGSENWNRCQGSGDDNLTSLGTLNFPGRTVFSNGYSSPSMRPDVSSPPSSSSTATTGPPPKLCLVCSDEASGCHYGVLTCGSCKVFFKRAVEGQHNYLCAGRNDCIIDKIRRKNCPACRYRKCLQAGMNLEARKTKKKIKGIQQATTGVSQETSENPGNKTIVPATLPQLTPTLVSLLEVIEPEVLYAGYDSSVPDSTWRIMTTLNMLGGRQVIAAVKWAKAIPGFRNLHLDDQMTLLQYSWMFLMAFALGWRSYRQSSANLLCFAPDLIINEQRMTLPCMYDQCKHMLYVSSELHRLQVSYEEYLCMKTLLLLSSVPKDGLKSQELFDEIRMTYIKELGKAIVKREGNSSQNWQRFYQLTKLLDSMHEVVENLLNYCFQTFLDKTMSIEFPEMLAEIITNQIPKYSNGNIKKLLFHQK
Test: HepG2 TAT assay: inhibition of dexamethasone-induced tyrosine aminotransferase (TAT) activity
Format: cell-based
Conditions: HepG2 cells, challenge of 100 nM dexamethasone, 18-24 hr; IC50 converted to Ki by Cheng and Prusoff equation
Protocol: Glucocorticoid mediated activation of TAT occurs by transactivation of glucocorticoid response elements in the TAT promoter by glucocorticoid receptor-agonist complex. HepG2 cells were cultured using MEME media supplemented with 10% (v/v) foetal bovine serum; 2 mM L-glutamine and 1% (v/v) NEAA at 37° C., 5%/95% (v/v) CO2/air. Compounds were serially half log diluted in 100% (v/v) dimethylsulphoxide from a 10 mM stock. […]
pKi: −log10 of the molar value.

Compound | pKi
Cc1cc2c(cnn2-c2ccc(F)cc2)cc1[C@]12CN(S(=O)(=O)c3cnn(C)n3)C[C@H]1[C@@H]2C(=O)N(C)c1ccccc1 | 6.89
Cc1cc2c(cnn2-c2ccc(F)cc2)cc1[C@@]12CN(C(=O)c3ccccc3)C[C@@H]1[C@H]2CN1CCOCC1 (stereo in doubt) | 6.22
COC1(c2ccccc2)CC2CN(S(=O)(=O)c3ccn(C)n3)CC2(c2cc3cnn(-c4ccc(F)cc4)c3cc2C)C1 (stereo not shown) | 6.89
Cc1ccnc(C(=O)N2C[C@@H]3[C@@H](c4ccccc4)[C@]3(c3cc4cnn(-c5ccc(F)cc5)c4cc3C)C2)c1 (single isomer, unassigned) | 7.85
COC1CC2CN(S(C)(=O)=O)CC2(c2cc3cnn(-c4ccc(F)cc4)c3cc2C)C1 (stereo not shown) | 6.10
CO[C@@]1(c2ccccc2)C[C@H]2CN(S(=O)(=O)c3cnn(C(C)C)n3)C[C@@]2(c2cc3cnn(-c4ccc(F)cc4)c3cc2C)C1 | 7.52
CO[C@]1(c2ccccc2)C[C@@H]2CN(S(=O)(=O)c3cncc(F)c3)C[C@]2(c2cc3cnn(-c4ccc(F)cc4)c3cc2C)C1 | 7.28
Cc1cc2c(cnn2-c2ccc(F)cc2)cc1[C@]12CN(S(=O)(=O)N3CCOCC3)C[C@H]1[C@@H]2c1ccccc1 | 7.70
CO[C@@]1(c2ccccc2)C[C@H]2CN(C(=O)c3ccccc3)C[C@@]2(c2cc3cnn(-c4ccc(F)cc4)c3cc2C)C1 (single isomer, unassigned) | 7.10
Cc1cc2c(cnn2-c2ccc(F)cc2)cc1[C@@]12CN(S(C)(=O)=O)C[C@@H]1[C@H]2c1ccccc1 | 7.41
Cc1cc2c(cnn2-c2ccc(F)cc2)cc1[C@@]12CN(C(=O)c3cccc(C(F)(F)F)n3)C[C@@H]1[C@H]2c1ccccc1 (stereo in doubt) | 7.32
CO[C@]1(c2ccccc2)C[C@@H]2CN(S(=O)(=O)c3cnn(C)c3)C[C@]2(c2cc3cnn(-c4ccc(F)cc4)c3cc2C)C1 | 6.62
Cc1cc2c(cnn2-c2ccc(F)cc2)cc1[C@]12CN(S(=O)(=O)CC3CC3)C[C@H]1[C@@H]2c1ccccc1 | 7.54
